Test system: TGBC1TKB (Biliary Tract Carcinoma)
Experiment: Bliss excess, mean over the matrix (fraction); higher = more synergy
MEASURE NAME: Bliss excess
Respond with the number and no other words.

N#Cc1cnc(Nc2cc(NC[C@H]3CNCCO3)c(C(F)(F)F)cn2)cn1 [SRA737] + O=c1[nH]cc(F)c(=O)[nH]1 [5-Fluorouracil] (first compound max 10 µM, 7x7, partner max 20 µM) = -0.0482

I have this molecule here, CN(C)CCCOc1ccc(-c2ccc3ncc4c(c3c2)n(C2CCOCC2)c(=O)n4C)cn1 [AZD0156] + CCN(CCO)CCCOc1ccc2c(Nc3cc(CC(=O)Nc4cccc(F)c4)[nH]n3)ncnc2c1 [AZD2811] (first compound max 1 µM, 7x7, partner max 1 µM) , and I need its recorded Bliss excess.
-0.043

----------
System: ESS-1 (Other Solid Carcinomas)
Experiment: combination Emax (second highest fraction inhibited in the dose matrix, 72 h); higher = more inhibition; extreme values may be limits of the assay
MEASURE NAME: combination Emax

Recorded combination Emax, per entry:
O=C(c1cc(Cc2n[nH]c(=O)c3ccccc23)ccc1F)N1CCN(C(=O)C2CC2)CC1 [Olaparib] + CN(CC[C@H](CSC1=CC=CC=C1)NC2=C(C=C(C=C2)S(=O)(=O)NC(=O)C3=CC=C(C=C3)N4CCC(CC4)[C@H](C5=CC=CC=C5C6=CC=C(C=C6)Cl)O)S(=O)(=O)C(F)(F)F)CCO [AZD4320] (first compound max 10 µM, 7x7, partner max 1 µM) = 0.787
CC1(C)CCC(CN2CCN(c3ccc(C(=O)NS(=O)(=O)c4ccc(NCC5CCOCC5)c([N+](=O)[O-])c4)c(Oc4cnc5[nH]ccc5c4)c3)CC2)=C(c2ccc(Cl)cc2)C1 [Venetoclax] + COc1cc(Nc2ncc3c(n2)-c2ccc(Cl)cc2C(c2c(F)cccc2OC)=NC3)ccc1C(=O)O [Alisertib] (first compound max 1 µM, 7x7, partner max 10 µM) = 0.957

Shift focus to the following entry.
I have this compound here, CC1(C)CCC(CN2CCN(c3ccc(C(=O)NS(=O)(=O)c4ccc(NCC5CCOCC5)c([N+](=O)[O-])c4)c(Oc4cnc5[nH]ccc5c4)c3)CC2)=C(c2ccc(Cl)cc2)C1 [Venetoclax] + Cc1cc2ncnn2cc1Nc1ncc2c(n1)n(C1CCOCC1)c(=O)n2C [AZD7648] (first compound max 1 µM, 7x7, partner max 10 µM) , and I need its recorded combination Emax.
0.886

----------
System: YAPC (Pancreatic Carcinoma)
Test: Bliss excess, mean over the matrix (fraction); higher = more synergy
# Bliss excess per record follows

Recorded Bliss excess, per entry:
CC(=O)c1c(C)c2cnc(Nc3ccc(N4CCNCC4)cn3)nc2n(C2CCCC2)c1=O [Palbociclib] + Cc1c2c(nn1C)CSCc1cc(n(C)n1)CSc1cc(c3ccccc3c1)OCCCc1c(C(=O)O)n(C)c3c-2c(Cl)ccc13 [AZD5991] (first compound max 10 µM, 7x7, partner max 1 µM) = -0.0037
CN(CCO)CC[C@H](CSc1ccccc1)Nc1ccc(S(=O)(=O)NC(=O)c2ccc(N3CCC([C@@H](O)c4ccccc4-c4ccc(Cl)cc4)CC3)cc2)cc1S(=O)(=O)C(F)(F)F [AZD4320] + CN(C)CCCOc1ccc(-c2ccc3ncc4c(c3c2)n(C2CCOCC2)c(=O)n4C)cn1 [AZD0156] (first compound max 1 µM, 7x7, partner max 1 µM) = -0.028

Shift focus to the following entry.
// lookup Bliss excess | system=YAPC (Pancreatic Carcinoma) | key= CC1(C)CCC(CN2CCN(c3ccc(C(=O)NS(=O)(=O)c4ccc(NCC5CCOCC5)c([N+](=O)[O-])c4)c(Oc4cnc5[nH]ccc5c4)c3)CC2)=C(c2ccc(Cl)cc2)C1 [Venetoclax] + C1CN(CCC1(C(=O)N[C@@H](CCO)C2=CC=C(C=C2)Cl)N)C3=NC=NC4=C3C=CN4 [Capivasertib] (first compound max 1 µM, 7x7, partner max 3 µM)
-0.0461
